Field: pIC50. Provide a value for each of the compounds that follow.
Biological target: human P2X4 (Homo sapiens, UniProt Q99571)
Sequence (Q99571 1-388): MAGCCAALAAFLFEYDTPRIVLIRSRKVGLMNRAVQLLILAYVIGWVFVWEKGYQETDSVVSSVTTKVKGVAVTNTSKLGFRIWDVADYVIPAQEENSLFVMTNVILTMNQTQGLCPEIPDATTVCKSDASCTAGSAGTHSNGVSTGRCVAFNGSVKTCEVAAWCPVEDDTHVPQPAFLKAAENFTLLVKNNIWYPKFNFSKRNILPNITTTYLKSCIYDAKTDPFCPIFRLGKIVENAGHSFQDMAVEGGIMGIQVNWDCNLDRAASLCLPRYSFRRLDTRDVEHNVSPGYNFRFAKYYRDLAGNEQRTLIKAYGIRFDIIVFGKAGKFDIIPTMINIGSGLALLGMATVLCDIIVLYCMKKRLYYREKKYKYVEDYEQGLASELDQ
Assay: Human P2X4 HEK Cell FLIPR Assay
Details: HEK293 cells, agonist Bz-ATP at EC80; individual values listed where some fall outside detection range
Interpret pIC50 as the negative base-10 log of the concentration measured in mol/L.

Sure, the documented pIC50 for `Cc1cccc(CC(=O)Nc2ccc(-n3cc(C(F)(F)F)cn3)c(S(N)(=O)=O)c2)c1` is 6.78

Reported pIC50 ( `NS(=O)(=O)c1cc(NC(=O)Cc2ccccc2Cl)ccc1-c1cnc(C(F)(F)F)nc1` ) = 6.56

Lab note: `NS(=O)(=O)c1cc(NC(=O)Cc2ccc(O)cc2)ccc1-n1cc(F)cn1` gave pIC50 of 6.36

// `Cc1ccc(Cl)c(CC(=O)Nc2ccc(-n3cc(C(F)(F)F)cn3)c(S(N)(=O)=O)c2)c1` : pIC50 value = 6.97

The recorded pIC50 for `NS(=O)(=O)c1c(-c2cnn(C(F)F)c2)ccc(NC(=O)Cc2ccccc2Cl)c1F` is 6.64

Please fill in: pIC50 reported for `N#Cc1cnn(-c2ccc(NC(=O)Cc3cccc(F)c3F)cc2S(N)(=O)=O)c1` = 6.88

Sure, the documented pIC50 for `N#Cc1cnn(-c2ccc(NC(=O)Cc3ccccc3OC(F)(F)F)cc2S(N)(=O)=O)c1` is 7.14

pIC50 recorded for this compound, `CCOc1ccccc1CC(=O)Nc1ccc(-n2cc(Cl)cn2)c(S(N)(=O)=O)c1` , is 6.65

---

Biological target: human P2X4 (Homo sapiens)
Test: Human P2X4 HEK Cell FLIPR Assay
Settings: HEK293 cells, agonist Bz-ATP at EC80; individual values listed where some fall outside detection range
In plain terms, low IC50, meaning strictly below 70 nM, gives y, and everything else gives n.

Identify whether the compound CC(C)c1cnn(-c2ccc(NC(=O)Cc3ccccc3Cl)cc2S(N)(=O)=O)c1 [Example 516] records IC50 below 70 nM. n

Regarding Cc1ccccc1CC(=O)Nc1ccc(-n2cc(Br)cn2)c(S(N)(=O)=O)c1 [Example 66] , kindly confirm whether its IC50 is beneath 70 nM. n

Record NS(=O)(=O)c1cc(NC(=O)Cc2ccncc2Cl)ccc1-n1cc(Br)cn1 [Example 72] : is its IC50 strictly below 70 nM? n

Dear colleague, could you confirm whether IC50 of NS(=O)(=O)c1cc(NC(=O)Cc2ccc(Cl)cc2)ccc1-n1cc(C(F)(F)F)cn1 [Example 108] falls below 70 nM? Thanks. n

Hello, I'm reviewing records and need to know if IC50 of NS(=O)(=O)c1cc(NC(=O)Cc2ccc(O)cc2)ccc1-n1cc(Cl)cn1 [Example 86] is below 70 nM. Could you check? n

Record NS(=O)(=O)c1cc(NC(=O)C(F)(F)c2ccccc2Cl)ccc1-n1cc(Cl)cn1 [Example 109] : is its IC50 strictly below 70 nM? n

Regarding Cc1nn(-c2ccc(NC(=O)Cc3ccccc3Cl)cc2S(N)(=O)=O)cc1C#N [Example 548] , kindly confirm whether its IC50 is beneath 70 nM. y

For Cc1ccc(F)c(CC(=O)Nc2ccc(-n3cc(F)cn3)c(S(N)(=O)=O)c2)c1Cl [Example 159] , is the recorded IC50 below the cut-off of 70 nM? y

Check if IC50 falls below 70 nM for Cc1nn(-c2ccc(NC(=O)Cc3ccccc3Cl)cc2S(N)(=O)=O)c(C)c1Cl [Example 543] . n

Please let me know if NS(=O)(=O)c1cc(NC(=O)Cc2ccccc2F)ccc1-n1cc2ccccc2n1 [Example 397] shows IC50 below 70 nM. n

Is 70 nM strictly greater than the compound's reported IC50? compound: NS(=O)(=O)c1cc(NC(=O)Cc2ccccc2Cl)ccc1-c1cnn(C2COC2)c1 [Example 373] n

Regarding NS(=O)(=O)c1cc(NC(=O)Cc2ccccc2C(F)(F)F)ccc1-c1cncc(C(F)(F)F)c1 [Example 304] , kindly confirm whether its IC50 is beneath 70 nM. n

Quick check: IC50 of NS(=O)(=O)c1cc(NC(=O)Cc2ccccc2Cl)ccc1-n1cc(C(F)F)cn1 [Example 379] under 70 nM? y

Does this compound meet the criterion IC50 < 70 nM? NS(=O)(=O)c1cc(NC(=O)Cc2ccccc2Cl)ccc1-c1cncc(Cl)c1 [Example 325] y

Is 70 nM strictly greater than the compound's reported IC50? compound: NS(=O)(=O)c1cc(NC(=O)Cc2cc(F)ccc2Cl)ccc1-n1cnc(C(F)(F)F)n1 [Example 58] n

In the record for NS(=O)(=O)c1cc(NC(=O)Cc2ccccc2Cl)ccc1-c1cnn(C2CCCC2)c1 [Example 329] , is IC50 less than 70 nM? y

---

Molecular target: human P2X4 (Homo sapiens, UniProt Q99571)
Sequence (Q99571 1-388): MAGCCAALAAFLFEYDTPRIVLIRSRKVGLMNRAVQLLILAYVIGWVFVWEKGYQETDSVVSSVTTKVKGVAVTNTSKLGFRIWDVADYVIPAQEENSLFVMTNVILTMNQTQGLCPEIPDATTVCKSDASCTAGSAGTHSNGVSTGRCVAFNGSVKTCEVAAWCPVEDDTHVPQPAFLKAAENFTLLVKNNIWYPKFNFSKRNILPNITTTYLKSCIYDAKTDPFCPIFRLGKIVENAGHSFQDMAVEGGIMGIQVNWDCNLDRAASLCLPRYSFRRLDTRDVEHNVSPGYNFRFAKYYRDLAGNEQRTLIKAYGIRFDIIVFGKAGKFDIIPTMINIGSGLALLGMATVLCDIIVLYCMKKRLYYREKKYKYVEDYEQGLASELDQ
Test: Human P2X4 HEK Cell FLIPR Assay
Conditions: HEK293 cells, agonist Bz-ATP at EC80; individual values listed where some fall outside detection range
Give IC50 for every item shown.
Just the number please, in nM, no unit attached.

So, `Cn1cc(-c2ccc(NC(=O)Cc3ccccc3Cl)cc2S(N)(=O)=O)c(C(F)(F)F)n1` ? Its IC50 was 62

What the record says about `NS(=O)(=O)c1cc(NC(=O)Cc2cccc(F)c2)ccc1-c1ccc(Cl)nc1` : IC50 is 648

Noted for `Cc1csc(-c2ccc(NC(=O)Cc3ccccc3Cl)cc2S(N)(=O)=O)n1` : its IC50 reads 50

Please fill in: IC50 reported for `CC(C)Oc1cccc(-c2ccc(NC(=O)Cc3ccccc3Cl)cc2S(N)(=O)=O)c1F` = 14

---

Molecular target: human P2X4 (Homo sapiens, UniProt Q99571)
Assay: Human P2X4 HEK Cell FLIPR Assay
Conditions: HEK293 cells, agonist Bz-ATP at EC80; individual values listed where some fall outside detection range
Field: IC50. Provide a value for each of the molecules that follow.
Answer with a number only, understood to be in nM.

// IC50 value for Cc1cnn(-c2ccc(NC(=O)Cc3ccccc3F)cc2S(N)(=O)=O)c1 [Example 262] : 235

get_value(item= NS(=O)(=O)c1cc(NC(=O)Cc2ccccc2Cl)ccc1-n1cnc(C(F)(F)F)c1 [Example 10] , readout=IC50) returns 7

The recorded IC50 for entry NS(=O)(=O)c1cc(NC(=O)Cc2ccccc2F)ccc1-n1cnc(C2CC2)c1 [Example 263] equals 337

Record CC(C)Oc1ncc(-c2ccc(NC(=O)Cc3ccccc3Cl)cc2S(N)(=O)=O)cn1 [Example 311] , field IC50: 285

Recorded IC50 (molecule NS(=O)(=O)c1cc(NC(=O)Cc2ccccc2O)ccc1-n1cc(F)cn1 [Example 147] ): 80

# IC50 (molecule: NS(=O)(=O)c1cc(NC(=O)Cc2ccccc2Cl)ccc1-c1cnc(OCC(F)(F)F)nc1 [Example 284] ) is 54

Entry Cc1cc(-c2ccc(NC(=O)Cc3ccccc3Cl)cc2S(N)(=O)=O)sn1 [Example 424] — recorded IC50 = 29

# IC50 of NS(=O)(=O)c1cc(NC(=O)Cc2ccccc2Cl)ccc1-n1cnc(C2CCC2)n1 [Example 231] = 51

NS(=O)(=O)c1cc(NC(=O)Cc2ccccc2Cl)cnc1-n1cc(F)cn1 [Example 385] has a reported IC50 of 47

Measured IC50, Cc1ccc(CC(=O)Nc2ccc(-c3cncc(C(F)(F)F)c3)c(S(N)(=O)=O)c2)cc1 [Example 454] : 1440

IC50 recorded for this molecule, Cc1nc(C)c(-c2ccc(NC(=O)Cc3ccccc3Cl)cc2S(N)(=O)=O)s1 [Example 503] , is 47

Lab note: measured IC50 of NS(=O)(=O)c1cc(NC(=O)Cc2ccccc2Cl)ccc1-n1cc(-c2ccncn2)cn1 [Example 404] was 175

The reported value for NS(=O)(=O)c1cc(NC(=O)Cc2ccccc2Cl)ccc1-c1ccncc1 [Example 552] in terms of IC50 is 1

Reported IC50 ( NS(=O)(=O)c1cc(NC(=O)Cc2c(F)cccc2Cl)ccc1-n1cc(Cl)cn1 [Example 77] ) = 71

Please fill in: IC50 reported for Cn1cc(-c2ncc(NC(=O)Cc3ccccc3Cl)cc2S(N)(=O)=O)cn1 [Example 302] = 56

Recorded IC50 (molecule NS(=O)(=O)c1cc(NC(=O)Cc2ccccc2Cl)ccc1-n1cc(C(=O)N2CC(F)(F)C2)cn1 [Example 440] ): 112

Note to self: IC50 recorded for NS(=O)(=O)c1cc(NC(=O)Cc2ccccc2Cl)ccc1-c1ccccc1 [Example 266] was 7

Memo: Cc1ccc(CC(=O)Nc2ccc(-c3nnc(C)o3)c(S(N)(=O)=O)c2)cc1 [Example 526] , reported IC50: 331

// field: IC50; key: NS(=O)(=O)c1cc(NC(=O)Cc2ccccc2Cl)ccc1-n1ccc(Cl)cc1=O [Example 2] ; value = 19400

The molecule listed as NS(=O)(=O)c1cc(NC(=O)Cc2ccccc2Cl)ccc1-c1cc(C2CC2)on1 [Example 438] shows IC50 equal to 18

Entry under test: NS(=O)(=O)c1cc(NC(=O)Cc2cccnc2Cl)ccc1-n1cc(C(F)(F)F)cn1 [Example 126] . Its IC50 was 1910

IC50 reading for NS(=O)(=O)c1cc(NC(=O)Cc2ccc(C(F)F)cc2)ccc1-n1ncc(C(F)(F)F)n1 [Example 410] : 5450

Form field IC50, entry COc1ccc(CC(=O)Nc2ccc(-n3cc(C#N)cn3)c(S(N)(=O)=O)c2)cc1 [Example 196] : 164

# molecule COc1cccc(Cl)c1CC(=O)Nc1ccc(-n2cc(C(F)(F)F)cn2)c(S(N)(=O)=O)c1 [Example 142] ; its IC50 = 116

Recorded result, NS(=O)(=O)c1cc(NC(=O)Cc2ccccc2Cl)ccc1-c1cnn(CCN2CCCC2)c1 [Example 281] , IC50: 481

Value of IC50 reported for the molecule Cc1nc(-c2ccc(NC(=O)Cc3ccccc3Cl)cc2S(N)(=O)=O)sc1C [Example 502] is 13800

Looking up NS(=O)(=O)c1cc(NC(=O)Cc2cc(C(F)(F)F)ccc2Cl)c(C(F)(F)F)cc1-n1cc(F)cn1 [Example 537] , I found its IC50 recorded as 3620

The reported value for CCOC(=O)c1cnn(-c2ccc(NC(=O)Cc3ccccc3F)cc2S(N)(=O)=O)c1 [Example 236] in terms of IC50 is 36

Quick note, IC50 for COc1cc(-c2ccc(NC(=O)Cc3ccccc3Cl)cc2S(N)(=O)=O)cnc1Cl [Example 332] landed at 326

IC50 for Cc1cc(-c2ccc(NC(=O)Cc3ccccc3Cl)cc2S(N)(=O)=O)cnn1 [Example 294] is 174

Reported IC50 ( Cc1nnc(-c2ccc(NC(=O)Cc3ccccc3F)cc2S(N)(=O)=O)o1 [Example 525] ) = 5170

In plain terms, NS(=O)(=O)c1cc(NC(=O)Cc2ccccc2F)ccc1-n1nnc2c(F)cc(F)cc21 [Example 480] has a documented IC50 of 125
